Taken from ChEMBL document CHEMBL1142276.

# study.system: Cannabinoid receptor 1 (Homo sapiens, UniProt P21554)
# Sequence (P21554 whole entry): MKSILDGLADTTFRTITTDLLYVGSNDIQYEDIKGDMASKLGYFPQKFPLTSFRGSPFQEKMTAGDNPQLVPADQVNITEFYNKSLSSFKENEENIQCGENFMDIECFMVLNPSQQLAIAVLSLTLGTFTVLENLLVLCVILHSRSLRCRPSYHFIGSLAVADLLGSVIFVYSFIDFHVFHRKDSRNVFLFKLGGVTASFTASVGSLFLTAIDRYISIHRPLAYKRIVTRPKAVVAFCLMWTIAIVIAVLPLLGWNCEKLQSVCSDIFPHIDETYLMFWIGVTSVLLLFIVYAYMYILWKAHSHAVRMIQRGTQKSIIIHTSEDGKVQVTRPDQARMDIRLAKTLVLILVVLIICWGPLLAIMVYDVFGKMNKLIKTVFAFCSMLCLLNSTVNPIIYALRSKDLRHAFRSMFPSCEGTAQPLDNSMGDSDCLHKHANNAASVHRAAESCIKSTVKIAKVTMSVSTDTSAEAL
# protocol.text: biochemical
# Description: Displacement of [3H]CP-55940 from human recombinant CB1 receptor expressed in HEK cells
Listed below: IC50 values for each entry.
measurement.name: IC50 (nM)

[[record]]
smiles_text = "Cc1c(C(=O)NCc2ccc(Cl)c(Cl)c2)nn(-c2ccc(F)cc2F)c1-n1c(C)ccc1C"
measurement_name = "IC50"
qual = "="
value = 62

[[record]]
smiles_text = "N#Cc1c(C(=O)NN2CCCCC2)nn(-c2ccccc2)c1-n1cccc1"
measurement_name = "IC50"
qual = ">"
value = 5000

[[record]]
smiles_text = "Cc1c(C(=O)NCc2ccc(Cl)c(Cl)c2)nn(-c2ccc(Cl)cc2Cl)c1-n1c(C)ccc1C"
measurement_name = "IC50"
qual = "="
value = 50

[[record]]
smiles_text = "Cc1c(C(=O)NCc2ccc(Cl)c(Cl)c2)nn(-c2ccc(Cl)c(Cl)c2)c1-n1c(C)ccc1C"
measurement_name = "IC50"
qual = "="
value = 500

[[record]]
smiles_text = "N#Cc1c(C(=O)NN2CCCCC2)nn(-c2ccc(Cl)cc2)c1-n1cccc1"
measurement_name = "IC50"
qual = "="
value = 5000


----------
# study.system: Cannabinoid receptor 2 (Homo sapiens)
# protocol.text: Displacement of [3H]CP-55940 from human recombinant CB2 receptor expressed in HEK cells
Listed below: Ki values for each entry.
measurement.name: Ki (nM)

[[record]]
smiles_text = "Cc1c(C(=O)NC2CCCCC2)nn(-c2ccc(Cl)c(Cl)c2)c1-n1cccc1"
study_system = "Cannabinoid receptor 2 (Homo sapiens)"
scale_unit = "nM"
qual = "="
value = 1.7

[[record]]
smiles_text = "Cc1c(C(=O)NCc2ccc(Cl)c(Cl)c2)nn(-c2ccc(Cl)cc2Cl)c1-n1c(C)ccc1C"
study_system = "Cannabinoid receptor 2 (Homo sapiens)"
scale_unit = "nM"
qual = "="
value = 3940

[[record]]
smiles_text = "Cc1c(C(=O)NCC2CCCCC2)nn(-c2ccc(Cl)cc2)c1-n1cccc1"
study_system = "Cannabinoid receptor 2 (Homo sapiens)"
scale_unit = "nM"
qual = "="
value = 390

[[record]]
smiles_text = "N#Cc1c(C(=O)NN2CCCCC2)nn(-c2ccc(Cl)cc2)c1-n1cccc1"
study_system = "Cannabinoid receptor 2 (Homo sapiens)"
scale_unit = "nM"
qual = ">"
value = 3940


----------
Listed below: pIC50 values for each entry.
# study.system: Cannabinoid receptor 1 (Homo sapiens)
# protocol.text: biochemical
pIC50: −log10 of the molar value.
measurement.name: pIC50

[[record]]
smiles_text = "Cc1c(C(=O)NN2CCCCC2)nn(-c2c(Cl)cc(Cl)cc2Cl)c1-n1c(C)ccc1C"
value = 6.70

[[record]]
smiles_text = "Cc1c(C(=O)NC2CCCCC2)nn(-c2ccc(Cl)c(Cl)c2)c1-n1cccc1"
value = 8.00

[[record]]
smiles_text = "Cc1c(C(=O)NN2CCCCC2)nn(-c2c(Cl)cc(Cl)cc2Cl)c1-n1cccc1"
value = 5.49

[[record]]
smiles_text = "Cc1c(C(=O)NCC2CCCCC2)nn(-c2ccc(Cl)cc2)c1-n1cccc1"
value = 6.70

[[record]]
smiles_text = "Cc1c(C(=O)NC2CCCCC2)nn(-c2ccc(Cl)c(Cl)c2)c1-n1c(C)ccc1C"
value = 7.60


----------
# study.system: Cannabinoid receptor 2 (Homo sapiens)
# protocol.text: Displacement of [3H]CP-55940 from human recombinant CB2 receptor expressed in HEK cells
pKi: −log10 of the molar value.
measurement.name: pKi

[[record]]
smiles_text = "Cc1c(C(=O)NC2CCCCC2)nn(-c2ccc(F)cc2F)c1-n1cccc1"
qual = "="
value = 7.19

[[record]]
smiles_text = "O=C(NC1CCCCC1)c1cc(-n2cccc2)n(-c2ccc(Cl)cc2)n1"
qual = "="
value = 5.76

[[record]]
smiles_text = "Cc1c(C(=O)NN2CCCCC2)nn(-c2ccc(F)cc2F)c1-n1c(C)ccc1C"
qual = "<"
value = 5.40

[[record]]
smiles_text = "Cc1c(C(=O)NCc2ccc(Cl)c(Cl)c2)nn(-c2ccc(F)cc2F)c1-n1c(C)ccc1C"
qual = "<"
value = 5.40

[[record]]
smiles_text = "Cc1c(C(=O)NC2CCCCC2)nn(-c2c(Cl)cc(Cl)cc2Cl)c1-n1c(C)ccc1C"
qual = "="
value = 6.41

[[record]]
smiles_text = "Cc1c(C(=O)NC2CCCCC2)nn(-c2ccc(Cl)c(Cl)c2)c1-n1c(C)ccc1C"
qual = "="
value = 8.89

[[record]]
smiles_text = "Cc1c(C(=O)NC2CCCCC2)nn(-c2ccc(Cl)cc2Cl)c1-n1cccc1"
qual = "="
value = 7.19

[[record]]
smiles_text = "Cc1c(C(=O)NN2CCCCC2)nn(-c2ccc(Cl)c(Cl)c2)c1-n1cccc1"
qual = "="
value = 7.70

[[record]]
smiles_text = "Cc1c(C(=O)NN2CCCCC2)nn(-c2ccc(Cl)cc2Cl)c1-n1c(C)ccc1C"
qual = "="
value = 6.01

[[record]]
smiles_text = "Cc1c(C(=O)NN2CCOCC2)nn(-c2ccc(F)cc2F)c1-n1cccc1"
qual = "<"
value = 5.40


----------
# study.system: Cannabinoid receptor 1 (Mus musculus)
# Sequence (P47746 whole entry): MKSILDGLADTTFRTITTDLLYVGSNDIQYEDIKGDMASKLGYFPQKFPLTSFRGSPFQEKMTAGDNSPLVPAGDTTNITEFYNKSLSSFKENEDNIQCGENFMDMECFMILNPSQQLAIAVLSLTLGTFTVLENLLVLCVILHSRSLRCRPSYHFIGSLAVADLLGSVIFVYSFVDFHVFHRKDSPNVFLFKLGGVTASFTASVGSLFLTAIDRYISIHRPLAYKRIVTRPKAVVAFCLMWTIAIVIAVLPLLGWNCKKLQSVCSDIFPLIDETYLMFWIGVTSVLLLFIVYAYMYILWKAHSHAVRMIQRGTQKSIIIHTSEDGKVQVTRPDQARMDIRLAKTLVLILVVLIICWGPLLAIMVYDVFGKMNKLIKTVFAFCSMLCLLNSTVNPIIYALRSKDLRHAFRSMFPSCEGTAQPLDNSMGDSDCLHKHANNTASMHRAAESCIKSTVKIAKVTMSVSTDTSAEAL
# protocol.text: Activity at mouse CB1 receptor in mouse N18TG2 cells assessed as forskolin-induced cAMP formation
measurement.name: EC50 (nM)

[[record]]
smiles_text = "Cc1c(C(=O)NCc2ccc(Cl)c(Cl)c2)nn(-c2ccc(Cl)cc2Cl)c1-n1c(C)ccc1C"
study_system = "Cannabinoid receptor 1 (Mus musculus)"
scale_unit = "nM"
qual = "="
value = 25

[[record]]
smiles_text = "Cc1c(C(=O)NCc2ccc(Cl)c(Cl)c2)nn(-c2ccc(F)cc2F)c1-n1c(C)ccc1C"
study_system = "Cannabinoid receptor 1 (Mus musculus)"
scale_unit = "nM"
qual = ">"
value = 60

[[record]]
smiles_text = "Cc1c(C(=O)NC2CCCCC2)nn(-c2ccc(Cl)c(Cl)c2)c1-n1cccc1"
study_system = "Cannabinoid receptor 1 (Mus musculus)"
scale_unit = "nM"
qual = "="
value = 1


----------
# study.system: Cannabinoid receptor 2 (Homo sapiens, UniProt P34972)
# Sequence (P34972 whole entry): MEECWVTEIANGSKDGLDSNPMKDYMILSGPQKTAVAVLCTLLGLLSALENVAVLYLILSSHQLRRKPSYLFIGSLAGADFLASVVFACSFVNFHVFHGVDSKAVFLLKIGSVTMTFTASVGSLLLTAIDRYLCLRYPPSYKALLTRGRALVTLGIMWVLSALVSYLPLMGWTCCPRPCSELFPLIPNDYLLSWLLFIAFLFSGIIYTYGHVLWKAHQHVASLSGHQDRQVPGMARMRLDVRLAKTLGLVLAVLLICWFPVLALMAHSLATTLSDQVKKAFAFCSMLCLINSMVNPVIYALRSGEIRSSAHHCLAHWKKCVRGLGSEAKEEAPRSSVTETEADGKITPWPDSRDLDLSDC
# protocol.text: Displacement of [3H]CP-55940 from human recombinant CB2 receptor expressed in HEK cells
# Type: cell-based, HEK293
# assay.conditions: read-out: IC50
pIC50: −log10 of the molar value.
measurement.name: pIC50

[[record]]
smiles_text = "Cc1c(C(=O)NN2CCCCC2)nn(-c2ccc(F)cc2F)c1-n1cccc1"
measurement_name = "pIC50"
qual = "="
value = 5.52

[[record]]
smiles_text = "Cc1c(C(=O)NCc2ccc(Cl)c(Cl)c2)nn(-c2ccc(Cl)cc2Cl)c1-n1cccc1"
measurement_name = "pIC50"
qual = "="
value = 6.19

[[record]]
smiles_text = "Cc1c(C(=O)NN2CCCCC2)nn(-c2ccc(Cl)cc2Cl)c1-n1c(C)ccc1C"
measurement_name = "pIC50"
qual = "="
value = 5.91

[[record]]
smiles_text = "Cc1c(C(=O)NCc2ccc(Cl)c(Cl)c2)nn(-c2ccc(Cl)c(Cl)c2)c1-n1cccc1"
measurement_name = "pIC50"
qual = "="
value = 6.72

[[record]]
smiles_text = "Cc1c(C(=O)NC2CCCCC2)nn(-c2c(Cl)cc(Cl)cc2Cl)c1-n1c(C)ccc1C"
measurement_name = "pIC50"
qual = "="
value = 6.30

[[record]]
smiles_text = "Cc1c(C(=O)NC2CCCCC2)nn(-c2ccc(F)cc2F)c1-n1c(C)ccc1C"
measurement_name = "pIC50"
qual = "="
value = 6.14

[[record]]
smiles_text = "Cc1c(C(=O)NN2CCCCC2)nn(-c2ccc(Cl)cc2)c1-n1cccc1"
measurement_name = "pIC50"
qual = "="
value = 5.56

[[record]]
smiles_text = "Cc1c(C(=O)NCc2ccc(Cl)c(Cl)c2)nn(-c2ccc(Cl)c(Cl)c2)c1-n1c(C)ccc1C"
measurement_name = "pIC50"
qual = "="
value = 5.76

[[record]]
smiles_text = "Cc1c(C(=O)NN2CCCCC2)nn(-c2c(Cl)cc(Cl)cc2Cl)c1-n1c(C)ccc1C"
measurement_name = "pIC50"
qual = "<"
value = 5.30

[[record]]
smiles_text = "Cc1c(C(=O)NC2CCCCC2)nn(-c2ccc(F)cc2F)c1-n1cccc1"
measurement_name = "pIC50"
qual = "="
value = 7.08

[[record]]
smiles_text = "N#Cc1c(C(=O)NCc2ccc(Cl)c(Cl)c2)nn(-c2ccccc2)c1-n1cccc1"
measurement_name = "pIC50"
qual = "<"
value = 5.30

[[record]]
smiles_text = "Cc1c(C(=O)NN2CCCCC2)nn(-c2ccc(Cl)c(Cl)c2)c1-n1c(C)ccc1C"
measurement_name = "pIC50"
qual = "="
value = 7.43

[[record]]
smiles_text = "O=C(NC1CCCCC1)c1cc(-n2cccc2)n(-c2ccc(Cl)cc2)n1"
measurement_name = "pIC50"
qual = "="
value = 5.65


----------
# study.system: Cannabinoid receptor 2 (Homo sapiens, UniProt P34972)
# protocol.text: Displacement of [3H]CP-55940 from human recombinant CB2 receptor expressed in HEK cells
# Assay type: cell-based, HEK293
# assay.conditions: read-out: IC50
Listed below: IC50 values for each entry.
measurement.name: IC50 (nM)

[[record]]
smiles_text = "Cc1c(C(=O)NC2CCCCC2)nn(-c2ccc(Cl)cc2Cl)c1-n1c(C)ccc1C"
qual = "="
value = 110

[[record]]
smiles_text = "Cc1c(C(=O)NC2CCCCC2)nn(-c2ccc(Cl)cc2Cl)c1-n1cccc1"
qual = "="
value = 81

[[record]]
smiles_text = "Cc1c(C(=O)NC2CCCCC2)nn(-c2ccc(Cl)c(Cl)c2)c1-n1c(C)ccc1C"
qual = "="
value = 1.7

[[record]]
smiles_text = "Cc1c(C(=O)NCc2ccc(Cl)c(Cl)c2)nn(-c2ccc(F)cc2F)c1-n1cccc1"
qual = "="
value = 500

[[record]]
smiles_text = "Cc1c(C(=O)NN2CCCCC2)nn(-c2c(Cl)cc(Cl)cc2Cl)c1-n1cccc1"
qual = ">"
value = 5000

